The values you see were collected from PubChem BioAssay (NCATS).

- Tested on: CP250
- measurement.description: qHTS profiling for inhibitors of Plasmodium falciparum proliferation (AID 504749); further: nearly all actives have a fitted effect of over 60% in size
- condition.info: P. falciparum in erythrocytes, SYBR Green DNA, 72 h; series mostly up to 28.7 µM
Results filed as inconclusive are left out. Calls of active or inactive are those of the source. The call rests on the fitted dose curve; in most records, active means well fitted inhibition curve with a large enough effect; inconclusive means small, poorly fitted or top-dose-only effect; inactive means flat fitted curve, though single readings scatter.
Choose the fitting class; nothing outside active, inactive is accepted.

Use these answered entries as a reference point.
molecule | system.under.test | assigned.label
Nc1nc(Cl)nc2c1ncn2[C@H]1C[C@H](O)[C@@H](CO)O1 | CP250 | inactive
CCOc1cc(CC(=O)N[C@@H](CC(C)C)c2ccccc2N2CCCCC2)ccc1C(=O)O | CP250 | inactive
Cc1cc2c(s1)Nc1ccccc1N=C2N1CCN(C)CC1 | CP250 | inactive

// param item: `O=C(NCCO[N+](=O)[O-])c1cccnc1` ; yields the recorded call
inactive

// param item: `Nc1cc(C(Cl)=C(Cl)Cl)c(S(N)(=O)=O)cc1S(N)(=O)=O` ; yields the recorded call
inactive

// param item: CC(S)C(=O)NCC(=O)O (stereo not given) ; yields the recorded call
inactive

// param item: `C[C@H](Cn1cnc2c(N)ncnc21)OCP(=O)(O)O` ; yields the recorded call
inactive

// param item: O=C(CS(=O)Cc1ccco1)NCC=CCOc1cc(CN2CCCCC2)ccn1 (stereo not given) ; yields the recorded call
inactive
